Tested on: COLO 205 colon
Test: NCI-60 one-dose screen, 48 h
Conditions: 10 µM unless noted
The panel holds about 83,000 compounds, 20% with a hit somewhere; the sample as a whole holds those more often. Calls of active or inactive are those of the source. The calls were made as follows: active = growth percent below 10; inactive = the rest.
Field 'call' accepts YES = active, NO = inactive

How was C=C[C@]1(C)C=C2CC[C@@H]3C(C)(C)C(=O)CC[C@@]3(C)[C@@H]2CC1 classified in this test?
NO

Same for Cc1ccc(C(=O)N(CCCN)[C@@H](c2nc3cc(Cl)ccc3c(=O)n2Cc2ccccc2)C(C)C)cc1
YES

Same for CC1=C2[C@@H](CC1)[C@]1(C)O[C@@](C(C)C)(C[C@H]1OC(=O)CO)[C@H]2OC(=O)C1CC1c1ccccc1 (stereo not given in full)
NO

Same for COc1cc(-c2nc(SCCC(C)C)nc(Nc3ccc(F)cc3)c2C#N)cc(OC)c1OC
NO

Same for CC[C@@H]1NC(=O)[C@H]([C@H](O)[C@H](C)C/C=C/c2ccc(CN3C(=O)C(C)=C(C)C3=O)cc2)N(C)C(=O)[C@H](C(C)C)N(C)C(=O)[C@H](CC(C)C)N(C)C(=O)[C@H](CC(C)C)N(C)C(=O)[C@@H](C)NC(=O)[C@H](C)NC(=O)[C@H](CC(C)C)N(C)C(=O)[C@H](C(C)C)NC(=O)[C@H](CC(C)C)N(C)C(=O)CN(C)C1=O
NO

Same for Cn1c(=O)c2c(nc(Nc3cc(=O)[nH]c(=O)[nH]3)n2Cc2ccccc2)n(C)c1=O
YES

Same for COc1ccc2c(c1)oc1c(C)c3c(c(C)c12)C(=O)N(Nc1ccccc1)C3=O
NO

Same for CCN(C(=O)N1CCN(c2cc3c(cc2F)c(=O)c(C(=O)O)cn3C2CC2)CC1)c1nc(-c2ccccc2)cs1
NO

Same for N#Cc1c(N)nnn1Cc1cc(=O)oc2ccc(O)cc12
NO

Same for COc1ccc(-c2ccccc2)cc1-c1c(Nc2cc(Cl)cc(Cl)c2O)c(=O)c1=O
NO

Same for COc1ccc(Nc2nn3c(SCC(=O)c4ccc(C)cc4)nnc3s2)cc1
NO

Same for CC12OC(CC(O)C1O)n1c3ccccc3c3c4c(c5c6ccccc6n2c5c31)C(=O)N(CCN1CCOCC1)C4=O (stereo not given)
YES

Same for CN1C(=O)/C(=C/c2ccc(C(=O)Nc3ncc(Cc4ccccc4Cl)s3)cc2)SC1=S
NO

Same for C=C1C(=O)O[C@H]2[C@H]1CC/C(COC(=O)NCCCCNC(=O)OC/C1=C/CC[C@@]3(C)O[C@H]3[C@H]3OC(=O)C(=C)[C@@H]3CC1)=C\CC[C@@]1(C)O[C@@H]21
YES

Same for CN1CCN(Cc2ccc(NC(=O)c3cccc(C#Cc4c(N)ncc5ccc(F)cc45)c3)cc2C(F)(F)F)CC1
YES

###

System: OVCAR-3 ovarian
Experiment: NCI-60 one-dose screen, 48 h (100 = growth as untreated, 0 = no growth, -100 = all killed)
Conditions: 100 µM
About 83,000 compounds went through this panel and 20% of them were active in at least one assay; those are over-represented in the sample as a whole.
Please go through the items and note down their growth.
# output: bare number, implied unit %

Query the reported growth for OVCAR-3 ovarian; item: CC(=O)/C=C/c1ccc(N(C)Cc2ccc(C(C)(C)C)cc2)cc1
-93.2

Same for CC(=O)/C=C/c1ccc(OCc2ccc(C(C)(C)C)cc2)cc1
47.1

Same for CC(=O)/C=C/c1ccc(OCc2ccc(Cl)cc2)cc1
50.7

Same for CCN(Cc1ccccc1)c1ccc(/C=C2\COc3ccccc3C2=O)cc1
19.1

Same for COc1ccc(C(=O)/C=C/c2ccc(OCc3ccc(Cl)cc3)cc2)cc1OC
-45.2

Same for CC(=O)/C=C/c1ccc(N(CCO)Cc2ccc(C(C)(C)C)cc2)cc1
-95

Values were extracted from PubChem BioAssay (NCI).
